# Tested on: TK-10 renal
# method_notes: NCI-60 one-dose screen, 48 h (100 = growth as untreated, 0 = no growth, -100 = all killed)
# experimental_context: 10 µM unless noted
Compounds without any hit were thinned out: in the full panel of roughly 83,000, 20% have a hit. The source made the active and inactive calls. How the source made its calls: active means growth percent below 10; inactive means the rest.
value_kind: growth

Here are 5 compounds together with their reported answers.
Cn1cc(-c2noc(-c3cn(C)c4ncc(F)cc34)n2)c2cc(Cl)ccc21; 28% (inactive)
CC1Cc2c(Cl)ncnc2N(C)c2ccc(Cl)cc21 (centres undefined); 11.2% (inactive)
COc1ccc(C(C(=O)O)c2ccc(OC)cc2)cc1; 114% (inactive)
Cc1cc2c(C(C)C)c(O)c(O)c(C=NCc3ccoc3)c2c(O)c1-c1c(C)cc2c(C(C)C)c(O)c(O)c(C=NCc3ccco3)c2c1O; 45.8% (inactive)
C=C(C)[C@@H]1CC[C@]2(COCCC#N)CC[C@]3(C)[C@H](CC[C@@H]4[C@@](C)(CCCNCCC#N)[C@H](C(=C)C)CC[C@]43C)[C@@H]12; 49.7% [100 µM] (inactive)

// batch mode: one growth value per listed entry
1. CCn1cc(-c2ccnc(NCCNS(=O)(=O)c3ccc(Br)cc3)c2)c(-c2cccc(OC)c2)n1
2. N#Cc1c(Cl)nc(SCC2CO2)nc1-c1ccccc1 (centres undefined)
3. Cc1ccc(-c2cc(-c3ccc(C)cc3)nc(N3CCN(CCNc4ccnc5cc(Cl)ccc45)CC3)n2)cc1
4. O=C(Nc1cccc2ccccc12)c1cc2ccccc2cc1O

83.2% (inactive)
111% (inactive)
0.923% (active)
34.4% (inactive)

###

# Tested on: OVCAR-8 ovarian
# method_notes: NCI-60 one-dose screen, 48 h
# experimental_context: 10 µM unless noted
This is part of a sample that, as a whole, favours compounds with a hit. Of some 83,000 tested, about 20% had one in any assay. Active and inactive are the calls of the source. How the source made its calls: active means growth percent below 10; inactive means the rest.
Outcome field: choose from active, inactive

Fc1cc2[nH]ncc2c2c3c(c(-c4cn[nH]c4C(F)(F)F)nc12)C1CCC3C1 (stereo not given); inactive
C[N+](C)(C)c1ncnc2[n-]cnc12; inactive
CC[C@]12C=CCN3CC[C@@]4(c5ccc(OC)cc5N(C)[C@H]4[C@@](O)(C(=O)OC)[C@@H]1OC(=O)CCC(=O)N[C@H](Cc1c[nH]c4ccccc14)C(=O)OC)[C@@H]32; active
COc1ccc(C(C(=O)O)c2ccc(OC)cc2)cc1; inactive
COc1ccc2c(c1)C(C)Cc1c(Cl)ncnc1N2C (stereo not given); active
CC1(C)CC[C@]2(C(=O)OC(=O)[C@]34CCC(C)(C)C[C@@H]3C3=CC[C@@H]5[C@@]6(C)CCC(=O)C(C)(C)[C@@H]6CC[C@@]5(C)[C@]3(C)CC4)CC[C@]3(C)C(=CC[C@@H]4[C@@]5(C)CCC(=O)C(C)(C)[C@@H]5CC[C@]43C)[C@H]2C1; inactive

Test call for this compound, please: CC1Cc2ccc(OCCN(C)C)cc2C1=O (stereo not given)
inactive

Test call for this compound, please: `CC(C)CSc1ncnc2nc[nH]c12`
inactive

Test call for this compound, please: `COC(=O)[C@@H](NC(=O)NC(=O)NC(=O)CI)C(C)C`
inactive

Test call for this compound, please: `O=C1Nc2ccccc2/C1=C/C(=O)c1ccc(N2CCOCC2)cc1`
inactive

Test call for this compound, please: `CCNc1cc2c(cc1Br)-c1ccccc1C2=O`
inactive

Test call for this compound, please: `CC(C)C1=NOC(=O)C1=Cc1cn(-c2cccnc2)nc1-c1ccccc1`
inactive
